Data origin, for the record: patent US8217043B2

Provide the recorded inhibition at 67 µM for the entries that follow.
Study system: HIF-PH2 (EGLN1) (Homo sapiens)
Construct: made in house; host or cells: insect Hi5 cells
Run description: HIF-PH assay (14CO2 capture, peptide-dependent turnover)
Assay type: biochemical
Particulars: Concentration 67 μM
Protocol: Ketoglutaric acid α-[1-^14C]-sodium salt, alpha-ketoglutaric acid sodium salt, and HPLC purified peptide may be obtained from commercial sources, e.g., Perkin-Elmer (Wellesley Mass.), Sigma-Aldrich, and SynPep Corp. (Dublin Calif.), respectively. […] Enzyme activity is determined by capturing ^14CO2 using an assay described by Kivirikko and Myllyla (1982, Methods Enzymol. 82:245-304). […] Representative compounds of the invention were analyzed using the HIF-PH assay described above. […]
Numbers only, in %.

Query: Would you kindly share the measured inhibition at 67 µM for CC[C@H](NC(=O)c1c(O)c2cc(Cl)cn2n(Cc2ccc(F)cc2)c1=O)C(=O)O ?
Result: 86

For each of the compounds below, state inhibition at 67 µM.
1. C[C@@H](NC(=O)c1c(O)c2cc(Cl)cn2n(Cc2ccc(-c3ccccc3)cc2)c1=O)C(=O)O
2. C[C@H](NC(=O)c1c(O)c2cc3ccc(C(F)(F)F)cc3n2n(Cc2ccc(F)cc2)c1=O)C(=O)O
3. O=C(O)CNC(=O)c1c(O)c2cc(Cl)cn2n(Cc2cccnc2)c1=O
4. C[C@H](NC(=O)c1c(O)c2cc(Cl)cn2n(Cc2ccc(-c3ccccc3)cc2)c1=O)C(=O)O
5. O=C(O)CNC(=O)c1c(O)c2cc(Cl)cn2n(Cc2ccc(F)cc2)c1=O

Result:
[98, 89, 99, 100, 98]

For each of the compounds below, state inhibition at 67 µM.
1. O=C(O)CNC(=O)c1c(O)c2cc(-c3ccccc3)cn2n(Cc2ccc(C(F)(F)F)cc2)c1=O
2. C[C@H](NC(=O)c1c(O)c2cc(Cl)cn2n(Cc2cccnc2)c1=O)C(=O)O

Result:
1: 99; 2: 97

----------
Provide the recorded inhibition at 125 µM for the entries that follow.
Study system: HIF-PH2 (EGLN1) (Homo sapiens, UniProt Q9GZT9)
Construct: made in house; host or cells: insect Hi5 cells
Sequence (Q9GZT9 whole entry, species assumed): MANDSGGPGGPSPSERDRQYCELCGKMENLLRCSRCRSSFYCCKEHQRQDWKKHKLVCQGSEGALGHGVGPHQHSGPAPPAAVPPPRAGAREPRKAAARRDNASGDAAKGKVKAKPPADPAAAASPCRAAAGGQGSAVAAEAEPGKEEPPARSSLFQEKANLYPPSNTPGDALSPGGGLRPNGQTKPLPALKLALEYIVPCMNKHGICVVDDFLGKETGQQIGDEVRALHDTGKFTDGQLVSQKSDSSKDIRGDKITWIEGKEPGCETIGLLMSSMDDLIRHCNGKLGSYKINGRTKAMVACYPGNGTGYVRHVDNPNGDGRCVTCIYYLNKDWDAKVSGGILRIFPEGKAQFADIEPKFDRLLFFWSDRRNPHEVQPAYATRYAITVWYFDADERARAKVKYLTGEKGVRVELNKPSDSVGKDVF
Run description: HIF-PH assay (14CO2 capture, peptide-dependent turnover)
Type: biochemical
Particulars: Concentration 125 μM
Quick note: unit goes after the number.

Query: Would you kindly share the measured inhibition at 125 µM for O=C(O)CNC(=O)c1c(O)c2cccn2[nH]c1=O [Example 4] ?
Result: 84%

Query: Would you kindly share the measured inhibition at 125 µM for O=C(O)CNC(=O)c1c(O)c2cccn2n(Cc2c(F)cccc2F)c1=O [Example 15] ?
Result: 94%

Query: Would you kindly share the measured inhibition at 125 µM for O=C(O)CNC(=O)c1c(O)c2cccn2n(Cc2cccc(F)c2)c1=O [Example 14] ?
Result: 98%

Query: Would you kindly share the measured inhibition at 125 µM for O=C(O)CNC(=O)c1c(O)c2cccn2n(Cc2cccc(C(F)(F)F)c2)c1=O [Example 13] ?
Result: 97%

Query: Would you kindly share the measured inhibition at 125 µM for O=C(O)CNC(=O)c1c(O)c2cccn2n(Cc2ccccc2C(F)(F)F)c1=O [Example 16] ?
Result: 98%

Now examine the next entry.
Query: Would you kindly share the measured inhibition at 125 µM for O=C(O)CNC(=O)c1c(O)c2cccn2n(Cc2ccccc2F)c1=O [Example 5] ?
Result: 96%

----------
Study system: HIF-PH2 (EGLN1) (Homo sapiens)
Construct: made in house; host or cells: insect Hi5 cells
Run description: HIF-PH assay (14CO2 capture, peptide-dependent turnover)
Type: biochemical
Particulars: Concentration 50 μM
Protocol: Ketoglutaric acid α-[1-^14C]-sodium salt, alpha-ketoglutaric acid sodium salt, and HPLC purified peptide may be obtained from commercial sources, e.g., Perkin-Elmer (Wellesley Mass.), Sigma-Aldrich, and SynPep Corp. (Dublin Calif.), respectively. […] Enzyme activity is determined by capturing ^14CO2 using an assay described by Kivirikko and Myllyla (1982, Methods Enzymol. 82:245-304). […] Representative compounds of the invention were analyzed using the HIF-PH assay described above. […]
Attribute measured: inhibition at 50 µM
Quick note: unit goes after the number.

Would you please look over these solved cases?
Query: Would you kindly share the measured inhibition at 50 µM for O=C(O)CNC(=O)c1c(O)c2cc3ccccc3n2n(Cc2ccc(F)cc2)c1=O ?
Result: 96%

Query: Would you kindly share the measured inhibition at 50 µM for C[C@H](NC(=O)c1c(O)c2cc3ccccc3n2n(Cc2ccc(F)cc2)c1=O)C(=O)O ?
Result: 99%

Query: Would you kindly share the measured inhibition at 50 µM for O=C(O)CNC(=O)c1c(O)c2cc3ccc(C(F)(F)F)cc3n2n(Cc2ccc(F)cc2)c1=O ?
Result: 99%

Now examine the next entry.
Query: Would you kindly share the measured inhibition at 50 µM for O=C(O)CNC(=O)c1c(O)c2cc(Cl)c(Cl)n2n(Cc2ccc(F)cc2)c1=O ?
Result: 95%
